Origin of values: ChEMBL document CHEMBL5113371

Test system: RAW264.7
test.details: Cytotoxicity against mouse RAW264.7 cells
Type: functional

- compound: "O=c1oc(OCCOCc2ccccc2)nn1-c1ccccc1"
  CC50: "> 100 µM"
- compound: "CCCCCCOc1nn(-c2ccccc2)c(=O)o1"
  CC50: "> 100 µM"
- compound: "CCCCCCCCCCCC[C@H]1CC[P@@](=O)(OC)OC(C)=C1C(=O)OC"
  CC50: "> 20 µM"
- compound: "NNC(=O)c1ccncc1 [ISONIAZID]"
  CC50: "> 150 µM"
- compound: "CC(C)COc1nn(-c2ccccc2)c(=O)o1"
  CC50: "> 100 µM"
- compound: "CCCCCCCCCCCCCCCCO[P@]1(=O)OC[C@H]2COC(=O)C2=C(C)O1"
  CC50: "> 100 µM"
- compound: "CCCCCCOc1nn(-c2ccc(Oc3ccccc3)cc2)c(=O)o1"
  CC50: "> 100 µM"

###

Test system: Mycobacteroides abscessus
test.details: Antibacterial activity against Mycobacterium abscessus CIP 104536T smooth morphotype incubated for 1 to 14 days
Format: functional
measurement.parameters: time 1-14 day
Items are presented alongside their recorded MIC50.

- molecule: "COc1nn(-c2ccccc2)c(=O)o1"
  MIC50: "> 200 µM"
- molecule: "NCC[C@H](O)C(=O)N[C@@H]1C[C@H](N)[C@@H](O[C@H]2O[C@H](CN)[C@@H](O)[C@H](O)[C@H]2O)[C@H](O)[C@H]1O[C@H]1O[C@H](CO)[C@@H](O)[C@H](N)[C@H]1O"
  MIC50: "3.9 µM"
- molecule: "CCCCCCCCCCCC[C@H]1CC[P@@](=O)(OC)OC(C)=C1C(=O)OC"
  MIC50: "> 100 µM"
- molecule: "CCCCCCCCCCCCCCCCC1=C(C(=O)OC)CCOP(=O)(OC)O1 (stereo unspecified)"
  MIC50: "60 µM"
- molecule: "COc1nn(-c2ccc(Oc3ccccc3)cc2)c(=O)o1"
  MIC50: "88.2 µM"
- molecule: "CC(C)COc1nn(-c2ccc(Oc3ccccc3)cc2)c(=O)o1"
  MIC50: "33 µM"

###

Items are presented alongside their recorded MIC50.
Test system: Mycobacteroides abscessus
test.details: Antibacterial activity against Mycobacterium abscessus CIP 104536T rough morphotype incubated for 1 to 14 days
Type: functional
measurement.parameters: time 1-14 day

- compound: "C[C@@H](O)[C@H]1C(=O)N2C(C(=O)O)=C(SCCNC=N)C[C@H]12 [IMIPENEM ANHYDROUS]"
  qual: "="
  MIC50, µM: 29.9
- compound: "CCCCCCCCCC[C@H]1CC[P@@](=O)(OC)OC(C)=C1C(=O)OC"
  qual: ">"
  MIC50, µM: 100
- compound: "CCCCCCCCCC[C@@H]1CC[P@@](=O)(OC)OC(C)=C1C(=O)OC"
  qual: ">"
  MIC50, µM: 100
- compound: "COc1nn(-c2ccccc2)c(=O)o1"
  qual: ">"
  MIC50, µM: 200
- compound: "CCCCCCCCCCCC[C@@H]1CC[P@@](=O)(OC)OC(C)=C1C(=O)OC"
  qual: ">"
  MIC50, µM: 100
- compound: "CCCCCCCCCCCCCCCCC1=C(C(=O)OC)CCOP(=O)(OC)O1 (configuration not stated)"
  qual: "="
  MIC50, µM: 6.9
- compound: "CCCCCCCCCCCCCCCCOP1(=O)OCCC(C(=O)OC)=C(C)O1 (configuration not stated)"
  qual: "="
  MIC50, µM: 0.37
- compound: "CCCCCCCCCCC1=C(C(=O)OC)CCOP(=O)(OC)O1 (configuration not stated)"
  qual: "="
  MIC50, µM: 13.9
- compound: "COc1nn(-c2ccc(Oc3ccccc3)cc2)c(=O)o1"
  qual: ">"
  MIC50, µM: 200
- compound: "CC(C)COc1nn(-c2ccc(Oc3ccccc3)cc2)c(=O)o1"
  qual: "="
  MIC50, µM: 53.2
- compound: "NCC[C@H](O)C(=O)N[C@@H]1C[C@H](N)[C@@H](O[C@H]2O[C@H](CN)[C@@H](O)[C@H](O)[C@H]2O)[C@H](O)[C@H]1O[C@H]1O[C@H](CO)[C@@H](O)[C@H](N)[C@H]1O"
  qual: "="
  MIC50, µM: 7.4
- compound: "CCCCCCCCCCCC[C@H]1CC[P@@](=O)(OC)OC(C)=C1C(=O)OC"
  qual: ">"
  MIC50, µM: 100
